assay_system: BCRP (Homo sapiens)
Construct: endogenous in cells; host or cells: Caco-2 monolayers
Sequence (Q9UNQ0 whole entry): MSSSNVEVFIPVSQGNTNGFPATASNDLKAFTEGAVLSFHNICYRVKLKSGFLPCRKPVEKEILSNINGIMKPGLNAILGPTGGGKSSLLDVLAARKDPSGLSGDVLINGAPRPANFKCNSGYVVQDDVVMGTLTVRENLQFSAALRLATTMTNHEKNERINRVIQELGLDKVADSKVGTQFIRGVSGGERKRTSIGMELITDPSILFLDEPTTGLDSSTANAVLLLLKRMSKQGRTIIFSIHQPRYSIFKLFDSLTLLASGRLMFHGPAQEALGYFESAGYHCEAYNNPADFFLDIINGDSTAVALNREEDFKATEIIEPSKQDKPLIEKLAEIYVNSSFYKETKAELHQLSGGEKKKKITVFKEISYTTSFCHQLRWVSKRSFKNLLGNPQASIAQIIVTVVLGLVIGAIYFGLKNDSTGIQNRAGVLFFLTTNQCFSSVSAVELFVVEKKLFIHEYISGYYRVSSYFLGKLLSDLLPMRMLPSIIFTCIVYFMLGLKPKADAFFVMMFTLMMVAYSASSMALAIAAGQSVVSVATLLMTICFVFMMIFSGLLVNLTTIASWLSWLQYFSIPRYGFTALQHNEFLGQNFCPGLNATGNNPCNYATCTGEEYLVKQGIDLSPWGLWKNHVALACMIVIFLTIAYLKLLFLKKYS
protocol_summary: Loganin transport across Caco-2 monolayers with BCRP inhibitor apigenin
Format: in vitro ADME
measurement_context: human, Caco-2, pH 7.4, with apigenin 25 μM; read-out: P (efflux ratio PappBA/PappAB)
measured_quantity: efflux ratio at 120 min
Answer with a number only.

Asked: State, in one line, measured efflux ratio at 120 min of COC(=O)C1=CO[C@@H](O[C@@H]2O[C@H](CO)[C@@H](O)[C@H](O)[C@H]2O)[C@@H]2[C@@H](C)[C@@H](O)C[C@H]12
Given back: 0.41

###

Tested on: MRPs
protocol_summary: Loganin transport across Caco-2 monolayers with MRPs inhibitor MK 571
Format: in vitro ADME, human
measurement_context: human, Caco-2, pH 7.4, with MK571 100 μM; with MK 571 100 μM, loganin 20 μM, n = 3
measured_quantity: Papp B→A at 120 min, 20 μM

Asked: Give the value of Papp B→A at 120 min, 20 μM reported for the following: COC(=O)C1=CO[C@@H](O[C@@H]2O[C@H](CO)[C@@H](O)[C@H](O)[C@H]2O)[C@@H]2[C@@H](C)[C@@H](O)C[C@H]12 [loganin, Loganin]
Given back: 3.9 ×10⁻⁶ cm/s

###

protocol_summary: Bidirectional transport across Caco-2 cell monolayers (concentration, time, pH, temperature; control without inhibitor)
Assay type: in vitro ADME, human
measurement_context: human, Caco-2, pH 7.4, loganin 20 μM, AP to BL, 60 min, 37°C
measured_quantity: Papp A→B at 60 min, 20 µM (nm/s)
Report as a plain number; the unit nm/s is understood.

Asked: Note Papp A→B at 60 min, 20 µM for the compound shown: COC(=O)C1=CO[C@@H](O[C@@H]2O[C@H](CO)[C@@H](O)[C@H](O)[C@H]2O)[C@@H]2[C@@H](C)[C@@H](O)C[C@H]12
Given back: 113

###

System: BCRP
Construct: endogenous in cells; host or cells: Caco-2 monolayers
protocol_summary: Loganin transport across Caco-2 monolayers with BCRP inhibitor apigenin
Format: in vitro ADME, human
measurement_context: human, Caco-2, pH 7.4; with apigenin 25 μM, loganin 20 μM, n = 3
measured_quantity: Papp A→B at 120 min, 20 μM (×10⁻⁶ cm/s)
Please state the figure in ×10⁻⁶ cm/s; there is no need to write the unit.

Asked: Report Papp A→B at 120 min, 20 μM for COC(=O)C1=CO[C@@H](O[C@@H]2O[C@H](CO)[C@@H](O)[C@H](O)[C@H]2O)[C@@H]2[C@@H](C)[C@@H](O)C[C@H]12 [loganin, Loganin]
Given back: 30.1

###

System: Na+/K+ pump
protocol_summary: Loganin transport across Caco-2 monolayers with Na+/K+ pump inhibitor sodium vanadate
Type: in vitro ADME, human
measurement_context: human, Caco-2, pH 7.4, with sodium vanadate 50 μM; read-out: P (efflux ratio PappBA/PappAB)
measured_quantity: efflux ratio at 120 min, 20 μM
// return just the number, without any unit appended

Asked: Supply recorded efflux ratio at 120 min, 20 μM for COC(=O)C1=CO[C@@H](O[C@@H]2O[C@H](CO)[C@@H](O)[C@H](O)[C@H]2O)[C@@H]2[C@@H](C)[C@@H](O)C[C@H]12 here.
Given back: 0.73

###

Tested on: Na+/K+ pump
protocol_summary: Loganin transport across Caco-2 monolayers with Na+/K+ pump inhibitor sodium vanadate
Assay type: in vitro ADME, human
measurement_context: human, Caco-2, pH 7.4; with sodium vanadate 50 μM, loganin 20 μM, n = 3
measured_quantity: Papp A→B at 120 min, 20 μM (×10⁻⁶ cm/s)
Only the number, expressed in ×10⁻⁶ cm/s, is required.

Asked: Report measured Papp A→B at 120 min, 20 μM; entry is COC(=O)C1=CO[C@@H](O[C@@H]2O[C@H](CO)[C@@H](O)[C@H](O)[C@H]2O)[C@@H]2[C@@H](C)[C@@H](O)C[C@H]12
Given back: 12.3

###

Tested on: P-glycoprotein (P-gp)
Construct: endogenous in cells; host or cells: Caco-2 monolayers
protocol_summary: Loganin transport across Caco-2 monolayers with P-gp inhibitor verapamil
Assay type: in vitro ADME, human
measurement_context: human, Caco-2, pH 7.4; with verapamil 100 μM, loganin 20 μM, n = 3
measured_quantity: Papp B→A at 120 min, 20 μM (×10⁻⁶ cm/s)
Supply the numeric figure in ×10⁻⁶ cm/s, leaving out any unit text.

Asked: Identify measured Papp B→A at 120 min, 20 μM corresponding to COC(=O)C1=CO[C@@H](O[C@@H]2O[C@H](CO)[C@@H](O)[C@H](O)[C@H]2O)[C@@H]2[C@@H](C)[C@@H](O)C[C@H]12
Given back: 9.3

###

protocol_summary: Bidirectional transport across Caco-2 cell monolayers (concentration, time, pH, temperature; control without inhibitor)
Format: in vitro ADME, human
measurement_context: human, Caco-2, pH 7.4; range over 5, 20, 40 and 80 μM loganin; read-out: Absorptive permeability PappAB (AP to BL)
measured_quantity: Papp A→B at 120 min

Asked: Input COC(=O)C1=CO[C@@H](O[C@@H]2O[C@H](CO)[C@@H](O)[C@H](O)[C@H]2O)[C@@H]2[C@@H](C)[C@@H](O)C[C@H]12 [loganin, Loganin] , output reported Papp A→B at 120 min.
Given back: 12.2 to 14.8 ×10⁻⁶ cm/s

###

Test system: MRP2, MRP3
protocol_summary: Loganin transport across Caco-2 monolayers with MRP2/MRP3 inhibitor benzbromarone
Type: in vitro ADME, human
measurement_context: human, Caco-2, pH 7.4, with benzbromarone 50 μM; read-out: P (efflux ratio PappBA/PappAB)
Protocol: Before the experiments, the human intestinal Caco-2 cell monolayers were washed twice with HBSS medium (pH 7.4). […] UPLC-MS/MS data acquisition was performed using Analyst 1.5.2 and MultiQuant 2.1.1 software (Applied Biosystems). The data were analyzed by SPSS Software. The apparent permeability coefficient (Papp) was calculated according to Papp = (dQ/dt)/(A·C0) […]
measured_quantity: efflux ratio at 120 min, 20 μM
Answer with a number only.

Asked: Specify reported efflux ratio at 120 min, 20 μM for the compound shown: COC(=O)C1=CO[C@@H](O[C@@H]2O[C@H](CO)[C@@H](O)[C@H](O)[C@H]2O)[C@@H]2[C@@H](C)[C@@H](O)C[C@H]12 [loganin, Loganin]
Given back: 0.23

###

protocol_summary: Bidirectional transport across Caco-2 cell monolayers (concentration, time, pH, temperature; control without inhibitor)
Type: in vitro ADME, human
measurement_context: human, Caco-2, pH 7.4; control, no inhibitor, loganin 20 μM; read-out: P (efflux ratio PappBA/PappAB)
measured_quantity: efflux ratio at 120 min, 20 μM
Respond using a number only.

Asked: Give the value of efflux ratio at 120 min, 20 μM reported for the following: COC(=O)C1=CO[C@@H](O[C@@H]2O[C@H](CO)[C@@H](O)[C@H](O)[C@H]2O)[C@@H]2[C@@H](C)[C@@H](O)C[C@H]12
Given back: 0.9

###

protocol_summary: Bidirectional transport across Caco-2 cell monolayers (concentration, time, pH, temperature; control without inhibitor)
Type: in vitro ADME, human
measurement_context: human, Caco-2, pH 7.4; range over 5, 20, 40 and 80 μM loganin; read-out: Secretory permeability PappBA (BL to AP)
measured_quantity: Papp B→A at 120 min

Asked: Please supply the value of reported Papp B→A at 120 min for the item COC(=O)C1=CO[C@@H](O[C@@H]2O[C@H](CO)[C@@H](O)[C@H](O)[C@H]2O)[C@@H]2[C@@H](C)[C@@H](O)C[C@H]12
Given back: 11.1 to 13 ×10⁻⁶ cm/s

###

Tested on: BCRP
Construct: endogenous in cells; host or cells: Caco-2 monolayers
protocol_summary: Loganin transport across Caco-2 monolayers with BCRP inhibitor apigenin
Format: in vitro ADME, human
measurement_context: human, Caco-2, pH 7.4; with apigenin 25 μM, loganin 20 μM, n = 3
measured_quantity: Papp B→A at 120 min, 20 μM
// return the numeric value with its unit appended

Asked: Supply recorded Papp B→A at 120 min, 20 μM for COC(=O)C1=CO[C@@H](O[C@@H]2O[C@H](CO)[C@@H](O)[C@H](O)[C@H]2O)[C@@H]2[C@@H](C)[C@@H](O)C[C@H]12 [loganin, Loganin] here.
Given back: 12.3 ×10⁻⁶ cm/s

###

Tested on: Na+/K+ pump
protocol_summary: Loganin transport across Caco-2 monolayers with Na+/K+ pump inhibitor sodium vanadate
Assay type: in vitro ADME, human
measurement_context: human, Caco-2, pH 7.4; with sodium vanadate 50 μM, loganin 20 μM, n = 3
Description: Before the experiments, the human intestinal Caco-2 cell monolayers were washed twice with HBSS medium (pH 7.4). […] UPLC-MS/MS data acquisition was performed using Analyst 1.5.2 and MultiQuant 2.1.1 software (Applied Biosystems). The data were analyzed by SPSS Software. The apparent permeability coefficient (Papp) was calculated according to Papp = (dQ/dt)/(A·C0) […]
measured_quantity: Papp B→A at 120 min, 20 μM (×10⁻⁶ cm/s)
Give just the number in ×10⁻⁶ cm/s; leave the unit off.

Asked: Please report Papp B→A at 120 min, 20 μM for the following molecule: COC(=O)C1=CO[C@@H](O[C@@H]2O[C@H](CO)[C@@H](O)[C@H](O)[C@H]2O)[C@@H]2[C@@H](C)[C@@H](O)C[C@H]12
Given back: 9
